- measurementTarget: LAT1 (Homo sapiens, UniProt Q01650)
- Construct: endogenous in cells; host or cells: LS174T (wild type)
- Sequence (Q01650 whole entry): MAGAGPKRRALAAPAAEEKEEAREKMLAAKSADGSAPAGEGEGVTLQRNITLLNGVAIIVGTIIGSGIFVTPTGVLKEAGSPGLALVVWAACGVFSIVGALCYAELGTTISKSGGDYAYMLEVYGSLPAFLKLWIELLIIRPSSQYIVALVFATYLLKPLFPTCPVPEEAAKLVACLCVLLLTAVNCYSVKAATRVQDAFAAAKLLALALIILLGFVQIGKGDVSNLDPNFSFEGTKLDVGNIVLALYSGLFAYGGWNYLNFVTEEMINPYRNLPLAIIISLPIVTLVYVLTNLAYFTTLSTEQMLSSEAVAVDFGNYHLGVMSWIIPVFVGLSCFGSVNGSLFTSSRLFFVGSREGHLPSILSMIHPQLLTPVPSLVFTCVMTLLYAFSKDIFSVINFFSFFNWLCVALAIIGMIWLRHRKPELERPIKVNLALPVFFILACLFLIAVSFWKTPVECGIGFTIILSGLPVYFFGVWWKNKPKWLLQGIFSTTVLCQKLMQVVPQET
- Sequence (P08195 102-630 partner): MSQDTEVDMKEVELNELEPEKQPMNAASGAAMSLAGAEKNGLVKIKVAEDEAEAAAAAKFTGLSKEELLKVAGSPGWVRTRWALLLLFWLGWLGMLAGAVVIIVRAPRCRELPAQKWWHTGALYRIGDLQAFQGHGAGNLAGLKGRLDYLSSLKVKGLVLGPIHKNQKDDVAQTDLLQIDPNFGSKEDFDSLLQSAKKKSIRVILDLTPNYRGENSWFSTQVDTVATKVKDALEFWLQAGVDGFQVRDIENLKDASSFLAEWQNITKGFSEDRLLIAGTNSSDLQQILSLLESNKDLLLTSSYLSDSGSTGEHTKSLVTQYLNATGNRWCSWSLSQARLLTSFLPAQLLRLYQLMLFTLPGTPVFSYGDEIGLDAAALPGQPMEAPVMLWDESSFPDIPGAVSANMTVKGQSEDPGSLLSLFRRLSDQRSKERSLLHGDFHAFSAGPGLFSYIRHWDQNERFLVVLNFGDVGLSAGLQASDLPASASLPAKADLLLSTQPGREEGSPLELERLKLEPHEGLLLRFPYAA
- assayProtocol: 3H-leucine uptake assay in LS174T cells
- Assay type: cell-based
- measurementParameters: read-out: IC50, inhibition of 3H-leucine uptake, radioactive method, mean ± s.d., n = 3
propertyMeasured: IC50 (nM)
Numbers only, in nM.

Q: Write IC50 of "Nc1cc(COc2c(Cl)cc(C[C@H](N)C(=O)O)cc2Cl)c2oc(-c3ccccc3)nc2c1" ; system used: LAT1 (Homo sapiens, UniProt Q01650)
Result: 960

====

- measurementTarget: LAT1 (Homo sapiens, UniProt Q01650)
- Construct: endogenous in cells; host or cells: LS174T (wild type)
- assayProtocol: leucine-d3 uptake assay (LC-MS/MS) in LS174T cells
- Assay type: cell-based
- measurementParameters: 5 μM leucine-d3, 15 min uptake, mean ± s.d., n = 3, read-out: IC50, inhibition of leucine-d3 uptake
- Procedure: LS174T cells were seeded into 12-well plates at a density of 1×10^6/well. […] Leucine-d3 uptake was quantified with LC-MS/MS. […] Targeted analytes were monitored in a negative multiple-reaction monitoring (MRM) mode on an Agilent 6495C triple quadrupole […] system (CA, United States). […] Leucine-d3 and TCA-d4 were monitored in negative ion mode with MRM ion pairs at 135.1 > 89.2 (collision energy: 14 eV) and 518.0 > 124.0 (collision energy: 65 eV), respectively. […]
propertyMeasured: IC50
Form field: result (number plus unit)

Q: Report measured IC50; entry is "Nc1cc(COc2c(Cl)cc(C[C@H](N)C(=O)O)cc2Cl)c2oc(-c3ccccc3)nc2c1"
Result: 1110 nM
